Item-by-item account of TGI
System: T-47D breast
assay.overview: NCI tumour cell line growth inhibition, 48 h
Give the quantity in µM, number only.

// below: answered compounds
C=C1C(=O)OC2CC3(C)OC3C3OC3C3=CC(OC3=O)C12 (configuration not stated) :: 4.45
CCOC(=O)CCc1c(C)[nH]c2c(C)c3c([nH]c4ccc(Cl)cc43)c(C)c2c1=O :: 54.3
O=C(NO)c1cnc(N2CCN(S(=O)(=O)c3ccc4ccccc4c3)CC2)nc1 :: 1.79
CCN(CC)c1ccc2nc3c4ccccc4c(=NC(=O)c4ccccc4-c4c5ccc(N(CC)CC)cc5[o+]c5cc(N(CC)CC)ccc45)cc-3oc2c1 :: 17.3

Consider now this further compound.
Recorded TGI of CCNCCNc1cc(-c2cccc(C(F)(F)F)c2)c(C#N)c2nc3ccccc3n12 , please. 4.21

====

System: HT29 colon
assay.overview: NCI tumour cell line growth inhibition, 48 h; in the data active = GI50 below about 0.43 µM; inactive = the rest
Hi there, use one of these labels in your reply, thanks! active, inactive

Illustrative cases are given below, each with its answer.
COc1ccc(-n2cc(-c3ccc(OC)c(OC)c3)nc2SCc2ccccc2)cc1Cl :: inactive
Brc1ccc(Br)nn1 :: inactive
CN1CCN(c2ccc3nc4c(nc3c2C(F)(F)F)C(=O)c2ncccc2C4=O)CC1 :: inactive
N#Cc1c(Oc2ccc(F)c(NC(=O)Cc3cccc(C(F)(F)F)c3)c2)ccc2nc(NC(=O)C3CC3)sc12 :: active
CCOC(=O)C(Cc1ccc(OC)cc1)C(=O)OCC :: inactive
N#CSCC(=O)c1ccc(Cl)cc1 :: inactive

Give the logged outcome of this assay for the following compound: COc1cccc(Nc2nccc(Nc3ccc4[nH]ncc4c3)n2)c1 inactive

Okay, and CC(=O)/C=C/C1=C(c2ccsc2)c2ccccc2CC1 ? inactive

Then what about the compound CCN(CC)c1ccc2nc3c4ccccc4c(=NC(=O)c4ccccc4-c4c5ccc(N(CC)CC)cc5[o+]c5cc(N(CC)CC)ccc45)cc-3oc2c1 ? inactive

Also, Cc1cc2nc3c4ccccc4n(CCN(C)C)c3nc2cc1C please. inactive

Continue with COC(=O)Nc1nc2ccc(Sc3ccccc3)cc2[nH]1 active

====

Test system: NCI-H23 lung
assay.overview: NCI tumour cell line growth inhibition, 48 h; in the data active = GI50 below about 0.43 µM; inactive = the rest
Can you answer with just one of these options? 1.0 (active), 0.0 (inactive)

CCc1ccccc1-n1c(N)c(C#N)c(-c2ccc(OC)c(OC)c2)c(C#N)c1=O :: 0.0

Hello, I am checking results. What call was entered for ClC1=C(Cl)C(Cl)=C(Cl)C1=Cc1ccc(Cl)cc1 ? 0.0

Now the same for Brc1ccc(Br)nn1 0.0

Now give it for O=C(Nc1ccc(S(=O)(=O)NC2CCCCCC2)cc1)C(c1ccccc1)S(=O)(=O)c1ccc(F)cc1 (stereo unspecified) too. 1.0

Check CCN(CC)c1ccc2nc3c4ccccc4c(=NC(=O)c4ccccc4-c4c5ccc(N(CC)CC)cc5[o+]c5cc(N(CC)CC)ccc45)cc-3oc2c1 too. 0.0

What about N#CC(C#N)=Cc1ccc(-c2ccc(-c3nc4ccccc4o3)cc2)o1 ? 0.0

# iterate: Cc1sc(/N=C2/NC(=O)CS2)nc1-c1nc(/N=C2/NC(=O)CS2)sc1C 0.0

====

Test system: HOP-62 NSCLC
assay.overview: NCI tumour cell line growth inhibition, 48 h
Known log10 of TGI of a selection of compounds
Give log10 of TGI, with TGI taken in µM.

# example entries with known answers
COc1cccc2c1C(=O)c1c(O)c3c(c(O)c1C2=O)C[C@@](O)(/C(C)=N/NC(=O)c1ccc(Cl)c(Cl)c1)C[C@@H]3OC1CC(N)C(O)C(C)O1 (some centres undefined) :: 0.11
CSc1ccc(C2=NN(C(=O)c3ccc(N)cc3)C(c3ccc(F)cc3)C2)cc1 (centres undefined) :: 1.47
CS(=O)(=O)c1nc(Cl)c(Cl)c(C#N)c1Cl :: 1.55
Nc1ccc(C(=O)NN2C(=O)C(Cl)C2c2cccc([N+](=O)[O-])c2)cc1 (centres undefined) :: 1.62

Would you kindly look at the next entry?
Need log10 of TGI of Cc1cccnc1CNC1CC(NCc2ncccc2C)CC(NCc2ncccc2C)C1 (centres undefined) , thanks. 0.66
